- Tested on: GR-ST (B-Lymphoblastic Leukemia)
- PROTOCOL_SUMMARY: combination Emax (second highest fraction inhibited in the dose matrix, 72 h); higher = more inhibition; extreme values may be limits of the assay
OBSERVATION_TYPE: combination Emax
The answer should be written as a number, with no unit following it.

Example entries begin here.
COc1cc2ncnc(Nc3ccc(F)c(Cl)c3)c2cc1OCCCN1CCOCC1 [Gefitinib] + CC(C)n1c(=O)n(C)c2cnc3cc(F)c(-c4ccc(OCCCN5CCCCC5)nc4)cc3c21 [AZD1390] (first compound max 10 µM, 7x7, partner max 0.3 µM) | 0.39
C[C@@H](c1ccc2nccn2c1)n1nnc2ncc(-c3cnn(C)c3)nc21 [Savolitinib] + CC1(C)CCC(CN2CCN(c3ccc(C(=O)NS(=O)(=O)c4ccc(NCC5CCOCC5)c([N+](=O)[O-])c4)c(Oc4cnc5[nH]ccc5c4)c3)CC2)=C(c2ccc(Cl)cc2)C1 [Venetoclax] (first compound max 1 µM, 7x7, partner max 1 µM) | 0.218
O=C(c1cc(Cc2n[nH]c(=O)c3ccccc23)ccc1F)N1CCN(C(=O)C2CC2)CC1 [Olaparib] + CC1(C)CCC(CN2CCN(c3ccc(C(=O)NS(=O)(=O)c4ccc(NCC5CCOCC5)c([N+](=O)[O-])c4)c(Oc4cnc5[nH]ccc5c4)c3)CC2)=C(c2ccc(Cl)cc2)C1 [Venetoclax] (first compound max 10 µM, 7x7, partner max 1 µM) | 0.526
Cc1c2c(nn1C)CSCc1cc(n(C)n1)CSc1cc(c3ccccc3c1)OCCCc1c(C(=O)O)n(C)c3c-2c(Cl)ccc13 [AZD5991] + CC1(C)CCC(CN2CCN(c3ccc(C(=O)NS(=O)(=O)c4ccc(NCC5CCOCC5)c([N+](=O)[O-])c4)c(Oc4cnc5[nH]ccc5c4)c3)CC2)=C(c2ccc(Cl)cc2)C1 [Venetoclax] (first compound max 1 µM, 7x7, partner max 1 µM) | 0.124

Now for another entry.
QUERY: Data request, read-out combination Emax, for CN(C)CCCOc1ccc(-c2ccc3ncc4c(c3c2)n(C2CCOCC2)c(=O)n4C)cn1 [AZD0156] + C[C@@H]1COCCN1C2=NC(=NC(=C2)C3(CC3)[S@](=N)(=O)C)C4=C5C=CNC5=NC=C4 [AZD6738] (first compound max 1 µM, 7x7, partner max 10 µM)
RESULT: 0.715
